Attribution: PubChem BioAssay (Tox21)

- subject.of.test: Cytochrome P450 1A2 (Homo sapiens) (UniProt P05177)
- Sequence (P05177 whole entry, looked up): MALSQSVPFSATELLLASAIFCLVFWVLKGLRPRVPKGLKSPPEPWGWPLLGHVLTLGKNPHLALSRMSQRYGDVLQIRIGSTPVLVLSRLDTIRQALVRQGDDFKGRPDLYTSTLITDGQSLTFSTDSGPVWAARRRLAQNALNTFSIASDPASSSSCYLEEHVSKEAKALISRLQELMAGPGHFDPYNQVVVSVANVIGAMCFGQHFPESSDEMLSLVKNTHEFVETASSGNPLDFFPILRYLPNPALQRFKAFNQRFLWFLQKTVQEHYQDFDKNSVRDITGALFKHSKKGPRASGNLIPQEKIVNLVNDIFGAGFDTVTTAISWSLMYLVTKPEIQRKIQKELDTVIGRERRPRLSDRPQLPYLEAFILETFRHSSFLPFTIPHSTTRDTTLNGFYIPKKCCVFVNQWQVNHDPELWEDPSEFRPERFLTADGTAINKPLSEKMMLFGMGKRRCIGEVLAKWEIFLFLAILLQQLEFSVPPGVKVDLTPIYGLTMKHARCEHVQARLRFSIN
- method.description: Cytochrome P450 Family 1 Subfamily A Member 2 (CYP1A2) small molecule antagonists: luciferase reporter qHTS assay (AID 1671199); also: nearly all actives have a fitted effect of over 50% in size; also: potency is read from the fitted curve at half-maximal effect
- cond: P450-Glo CYP1A2 enzyme, luciferin luminescence, 1 h; series mostly up to 115 µM
Records with an inconclusive call do not appear. The source made the active and inactive calls. Calls follow the shape of the dose curve; as a rule, active = well fitted inhibition curve with a large enough effect in the repeat runs; inconclusive = weak or mixed curves; inactive = no such curve, though single readings can be large or run the other way.

>  <compound>
C=CC(=C)CCC=C(C)C

>  <Potency>
inactive

$$$$
>  <compound>
OCCCS

>  <Potency>
inactive

$$$$
>  <compound>
CCCOc1sc(C(=O)N2CCC(c3cc(CN)ccc3F)CC2)c(C)c1Br

>  <Potency>
73 µM (active)

$$$$
>  <compound>
CO[Si](CCCNCCNCCN)(OC)OC

>  <Potency>
inactive

$$$$
>  <compound>
CC1CCCCN1CCCOC(=O)c1ccc(OC2CCCCC2)cc1 (stereo unspecified)

>  <Potency>
inactive

$$$$
>  <compound>
CC(=O)OC(OC(C)=O)c1ccc([N+](=O)[O-])o1

>  <Potency>
45.6 µM (active)

$$$$
>  <compound>
Cc1cccc(N(C)C)c1

>  <Potency>
inactive

$$$$
>  <compound>
Cc1c(C(=O)O)cccc1[N+](=O)[O-]

>  <Potency>
inactive

$$$$
>  <compound>
Clc1cc(Cl)c(-c2c(Cl)c(Cl)cc(Cl)c2Cl)cc1Cl

>  <Potency>
inactive

$$$$
>  <compound>
O=C1NCCN1CCN1CCC(c2cn(-c3ccc(F)cc3)c3ccc(Cl)cc23)CC1

>  <Potency>
inactive

$$$$
>  <compound>
C/C=C/C=N/NC(=O)c1ccncc1

>  <Potency>
inactive

$$$$

----------
- method.description: qHTS RealTime-Glo MT Cell Viability Assay in HEK293 cells - 24 hour (AID 1224886); also: nearly all actives have a fitted effect of over 50% in size
- cond: RealTime-Glo luminescence; series mostly up to 76.8 µM
- Text: National Center for Advancing Translational Sciences [NCATS] NIH Chemical Genomics Center [NCGC] U.S. Environmental Protection Agency [EPA] National Institutes of Environmental Health Sciences [NIEHS] National Toxicology Program [NTP] U.S. Food and Drug Administration [FDA] Measure of cell viability is critical in the cell-base assay. Analysis of cell viability is necessary for the characterization of cell responses to cytotoxic drugs and environmental stress. […]
Records with an inconclusive call do not appear. Calls of active or inactive are those of the source. The call rests on the fitted dose curve; in most records, active means well fitted cell-killing curve with a large enough effect in the repeat runs; inconclusive means weak or mixed curves, or effect the other way; inactive means flat fitted curve, though single readings scatter.
Outcome codes: active, inactive

>  <compound>
Cc1cc2c(C(C)C)c(O)c(O)c(C=O)c2c(O)c1-c1c(C)cc2c(C(C)C)c(O)c(O)c(C=O)c2c1O

>  <class>
active

$$$$
>  <compound>
CC1CCCNC1 (stereo unspecified)

>  <class>
inactive

$$$$
>  <compound>
CN(C)CCN1CCOCC1

>  <class>
inactive

$$$$
>  <compound>
CCOC(=O)[C@@](C)(N)Cc1ccc(O)c(O)c1

>  <class>
inactive

$$$$
>  <compound>
CCCCN(C)C

>  <class>
inactive

$$$$
>  <compound>
CN(C)CCCN1c2ccccc2Sc2ccc(C(F)(F)F)cc21

>  <class>
active

$$$$
>  <compound>
CCOCN(C(=O)CS(=O)(=O)O)c1c(C)cccc1CC

>  <class>
inactive

$$$$
>  <compound>
CCc1ccc(C)nc1

>  <class>
inactive

$$$$
>  <compound>
CCOC(=O)CN

>  <class>
inactive

$$$$
>  <compound>
CCCCCCCOC(=O)c1ccccc1C(=O)OCCCCCCC

>  <class>
inactive

$$$$
>  <compound>
CCOC(OCC)C(=O)c1ccccc1

>  <class>
inactive

$$$$

----------
- method.description: A CellTox Green Cytotoxicity Assay to monitor cytotoxicity in HEK293 cells - 40 hour (AID 1224871); also: nearly all actives have a fitted effect of over 45% in size
- cond: CellTox Green fluorescence; series mostly up to 76.8 µM
Inconclusive results are not listed. The source made the active and inactive calls. Calls come from the whole dose curve; as a rule, active = well fitted activation curve with a large enough effect in the repeat runs; inconclusive = weak or mixed curves; inactive = flat fitted curve, though single readings scatter.
Outcome codes: True = active, False = inactive

>  <compound>
CC(C)=CCCC(C)CCOC(=O)C(C)C (stereo not given)

>  <class>
False

$$$$
>  <compound>
O=C[C@H](O)[C@H](O)[C@H](O)CO

>  <class>
False

$$$$
>  <compound>
NCCCCCCNCCCCCCN

>  <class>
False

$$$$
>  <compound>
CCc1cccc(C)c1

>  <class>
False

$$$$
>  <compound>
Cn1cccc1

>  <class>
False

$$$$
>  <compound>
CCCCCCCC(=O)OCC

>  <class>
False

$$$$
>  <compound>
CCc1c(Br)c(Br)c(Br)c(Br)c1Br

>  <class>
False

$$$$
>  <compound>
CN(C)c1ccc(N=NS(=O)(=O)O)cc1

>  <class>
False

$$$$
>  <compound>
C#CC(O)CCC (stereo not given)

>  <class>
False

$$$$
>  <compound>
CCCCCCOc1cc(C)c(O)c(C)c1C

>  <class>
True

$$$$
>  <compound>
COc1ccc(-n2nc(CCC(=O)N(C)O)cc2-c2ccc(Cl)cc2)cc1

>  <class>
False

$$$$
>  <compound>
C/C=C/c1ccc(OC)c(OC)c1

>  <class>
False

$$$$
>  <compound>
CCCCCCCCCCCCN(CCO)CCO

>  <class>
True

$$$$
>  <compound>
CCCCNc1c(C(=O)OCC)c(C)nc2c1cnn2CC

>  <class>
False

$$$$
>  <compound>
SCCCCCCCCS

>  <class>
False

$$$$

----------
- subject.of.test: Progesterone receptor (Homo sapiens) (UniProt P06401)
- Sequence (P06401 whole entry, looked up): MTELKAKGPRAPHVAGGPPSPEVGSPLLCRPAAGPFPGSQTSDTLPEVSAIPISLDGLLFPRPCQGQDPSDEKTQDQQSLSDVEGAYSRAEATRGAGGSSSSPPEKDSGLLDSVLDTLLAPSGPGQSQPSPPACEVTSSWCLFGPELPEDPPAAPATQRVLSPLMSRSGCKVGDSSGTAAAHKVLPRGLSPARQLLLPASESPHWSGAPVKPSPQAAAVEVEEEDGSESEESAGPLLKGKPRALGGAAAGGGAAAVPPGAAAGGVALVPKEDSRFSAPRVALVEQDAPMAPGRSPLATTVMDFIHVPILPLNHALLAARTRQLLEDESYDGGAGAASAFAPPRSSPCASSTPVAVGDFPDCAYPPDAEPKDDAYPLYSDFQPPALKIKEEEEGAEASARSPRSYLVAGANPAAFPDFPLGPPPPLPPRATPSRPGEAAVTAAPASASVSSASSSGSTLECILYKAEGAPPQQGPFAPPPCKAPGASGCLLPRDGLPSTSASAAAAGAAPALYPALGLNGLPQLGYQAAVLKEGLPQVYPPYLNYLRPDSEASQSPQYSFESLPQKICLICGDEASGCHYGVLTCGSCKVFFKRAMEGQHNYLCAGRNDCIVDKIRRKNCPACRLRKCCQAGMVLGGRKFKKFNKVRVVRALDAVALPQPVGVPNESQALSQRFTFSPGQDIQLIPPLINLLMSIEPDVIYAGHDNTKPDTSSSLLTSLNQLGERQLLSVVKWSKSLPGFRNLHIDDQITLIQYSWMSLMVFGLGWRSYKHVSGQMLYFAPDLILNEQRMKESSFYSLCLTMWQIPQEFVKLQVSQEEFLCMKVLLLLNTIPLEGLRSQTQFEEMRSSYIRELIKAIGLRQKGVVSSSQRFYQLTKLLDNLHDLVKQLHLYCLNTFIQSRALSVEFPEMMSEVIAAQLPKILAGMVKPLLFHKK
- method.description: qHTS assay to identify small molecule antagonists of the progesterone receptor (PR) signaling pathway (AID 1346795)
- cond: PR-UAS-bla HEK293T, beta-lactamase FRET ratio, 16 h; series mostly up to 92.4 µM
Results filed as inconclusive are left out. The source made the active and inactive calls. Calls come from the whole dose curve; as a rule, active = well fitted inhibition curve with a large enough effect in the signal ratio in the repeat runs (not every such curve was filed as active); inconclusive = weak or mixed curves; inactive = flat fitted curve, though single readings scatter; the % refers to the signal ratio.
Outcome codes: active, inactive

>  <compound>
OCCC(O)CO (stereo not drawn)

>  <class>
inactive

$$$$
>  <compound>
CC(C)CCOCCC(C)C

>  <class>
inactive

$$$$
>  <compound>
Cc1cncc(C)c1

>  <class>
inactive

$$$$
>  <compound>
C[C@@]12C(=O)OC(=O)[C@]1(C)C1CCC2O1

>  <class>
active

$$$$
>  <compound>
CN1CCN(C2Cc3ccccc3Sc3ccc(Cl)cc32)CC1 (stereo not drawn)

>  <class>
active

$$$$
>  <compound>
C=CC/C=C/C/C=C/C/C=C/C

>  <class>
inactive

$$$$
>  <compound>
CCOC(=O)CN

>  <class>
inactive

$$$$
>  <compound>
CCCCCCCCCCCCN(CCO)CCO

>  <class>
active

$$$$

----------
- method.description: qHTS assay to identify small molecule antagonists of the estrogen receptor alpha (ER-alpha) signaling pathway - cell viability counter screen (AID 743074);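 also: HEK293 cells carrying ER-alpha-UAS-bla reporter stimulated with 17beta-estradiol; nearly all actives have a fitted effect of over 45% in size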
- cond: ERalpha-bla HEK293 viability, CellTiter-Glo luminescence, 18 h; series mostly up to 69.4 µM
Results filed as inconclusive are left out. Calls of active or inactive are those of the source. Calls follow the shape of the full dose curve.
Outcome codes: active, inactive

>  <smiles.repr>
CCCCCCCCCCCC(=O)N(CC)CC

>  <class>
inactive

$$$$
>  <smiles.repr>
CCN(CC)CCNc1ccc(CO)c2sc3ccccc3c(=O)c12

>  <class>
inactive

$$$$
>  <smiles.repr>
C=CCCCCCCC=C

>  <class>
inactive

$$$$
>  <smiles.repr>
CCCN(CCc1cccs1)[C@H]1CCc2c(O)cccc2C1

>  <class>
inactive

$$$$
>  <smiles.repr>
Nc1cc(Cl)c([N+](=O)[O-])cc1O

>  <class>
inactive

$$$$
>  <smiles.repr>
O=C(O)Cc1ccc(OCCNC[C@H](O)c2ccccc2)cc1

>  <class>
inactive

$$$$
>  <smiles.repr>
CCCCCCCC/C=C\CCCCCCCC(=O)NCc1ccc(O)c(OC)c1

>  <class>
inactive

$$$$
>  <smiles.repr>
CCOC(=O)COc1ccc(C)cc1

>  <class>
inactive

$$$$
>  <smiles.repr>
SCCCCCCCCS

>  <class>
inactive

$$$$
>  <smiles.repr>
O[C@@H](c1cc(C(F)(F)F)nc2c(C(F)(F)F)cccc12)[C@H]1CCCCN1

>  <class>
active

$$$$
>  <smiles.repr>
Cc1c(-c2ccc(O)cc2)n(Cc2ccc(OCCN3CCCCCC3)cc2)c2ccc(O)cc12

>  <class>
inactive

$$$$
>  <smiles.repr>
S=P(N1CC1)(N1CC1)N1CC1

>  <class>
inactive

$$$$
>  <smiles.repr>
C[C@@H]1CC[C@H]2C(C)(C)[C@H]3C[C@@]12CC[C@@]3(C)O

>  <class>
inactive

$$$$

----------
- method.description: qHTS assay to identify small molecule agonists of the estrogen related receptor signaling pathway with the pleiotropic PPARgamma coactivator (PGC) from Tox21 10K library (AID 1224842); also: % is scaled to controls: 0 for no effect and ±100 for the full control effect; nearly all actives have a fitted effect of over 15% in size
- cond: PGC/ERR reporter cell line, luciferase ONE-Glo, 18 h; series mostly up to 92.4 µM
- Experimental: National Center for Advancing Translational Sciences [NCATS] NIH Chemical Genomics Center [NCGC] U.S. Environmental Protection Agency [EPA] National Institutes of Environmental Health Sciences [NIEHS] National Toxicology Program [NTP] […] Assay Protocol Summary: The PGC/ERR cells were dispensed at 2,000 cells/5 ul/well in 1536-well white plates using a Multidrop dispenser. […] After 30-minute incubation at room temperature, the luminescence intensity in the plates was measured using a ViewLux plate reader.
Results filed as inconclusive are left out. The source made the active and inactive calls. Calls come from the whole dose curve; as a rule, active = well fitted activation curve with a large enough effect in the repeat runs; inconclusive = weak or mixed curves, or effect the other way; inactive = no such curve, though single readings can be large or run the other way.
endpoint: activation

>  <compound>
NC(=O)c1nc(-c2cccc(-c3cc(F)ccc3OCC(F)(F)C(F)(F)F)c2)n[nH]1

>  <endpoint>
activation

>  <result>
inactive

$$$$
>  <compound>
Clc1ccc(C(Cn2ccnc2)OCc2ccsc2Cl)c(Cl)c1 (stereo unspecified)

>  <endpoint>
activation

>  <result>
inactive

$$$$
>  <compound>
COc1nccnc1CC(C)C

>  <endpoint>
activation

>  <result>
inactive

$$$$
>  <compound>
CC(C)c1ccc(O)c(C(C)C)c1

>  <endpoint>
activation

>  <result>
inactive

$$$$
>  <compound>
C=CC(=C)CC/C=C(\C)CCC=C(C)C

>  <endpoint>
activation

>  <result>
0% [at 19 µM] (inactive)

$$$$
>  <compound>
C/C=C/C(=O)Oc1c(CCCCCC(C)C)cc([N+](=O)[O-])cc1[N+](=O)[O-]

>  <endpoint>
activation

>  <result>
inactive

$$$$
